test-target: 20S proteasome extracted from rat liver (CT-L) (Rattus norvegicus, UniProt P18421+P28075)
Construct: 20S proteasome extracted from rat liver; from tissue; host or cells: rat liver
method-notes: inhibition of 20S proteasome, CT-L activity (fluorescent peptide)
Assay type: biochemical
test-context: 2 μM; rat liver 20S proteasome, 37° C., 1 h; read-out: inhibition rates (%) CT-L
endpoint-label: inhibition at 2 µM (%)

The cases that follow already have their inhibition at 2 µM on record.
>>> observed_measurement("CC(C)C[C@H](NC(=O)[C@H](Cc1ccccc1)NC(=O)[C@H](Cc1ccccc1)NC(=O)Nc1cccc(OCc2ccccc2)c1)B(O)O [Example 23]")
91
>>> observed_measurement("CC(C)C[C@H](NC(=O)N[C@@H](Cc1ccccc1)C(=O)N[C@@H](CC(C)C)C(=O)Nc1cnccn1)B1OC(C)(C)C(C)(C)O1 [Example 13]")
91.3
>>> observed_measurement("COc1ccc(OC)c(CNC(=O)N[C@@H](Cc2ccccc2)C(=O)N[C@@H](CC(C)C)B2OC3CC4CC(C4(C)C)[C@]3(C)O2)c1 (stereo partly drawn) [Example 19]")
97.3

A = CC(C)C[C@H](NC(=O)CNC(=O)Nc1cccc(OCc2ccccc2)c1)B(O)O [Example 21]
B = COc1ccc(NC(=O)[C@H](Cc2ccccc2)NC(=O)N[C@@H](CC(C)C)B2OC3C[C@H]4C[C@H](C4(C)C)[C@@]3(C)O2)cc1 (stereo partly drawn) [Example 9]
C = CC(C)C[C@H](NC(=O)N[C@@H](Cc1ccccc1)C(=O)Nc1cccc(OCc2ccccc2)c1)B1OC2C[C@H]3C[C@H](C3(C)C)[C@@]2(C)O1 (stereo partly drawn) [Example 5]
Query: Highest inhibition at 2 µM first, then in falling order down to the smallest. Kindly provide the labels arranged according to the requested ordering.
Response: A, B, C
(A: 90.9%, B: 44.9%, C: -15.1%)

All figures here come from patent US10494384B2.
